assay: Solubility in MCT oil; assay type: physicochemical; details: oil or lipid
EXPERIMENTAL READOUT: solubility

Query block: What value of solubility has been reported for the following compound? O=C(O)c1ccccc1O [salicylic acid]
Result block: > 30 mg/mL

These measurements were taken from patent US20140220134A1.
